# method-notes: Plasma pharmacokinetics in beagle dogs
# Format: in vivo
# assay-conditions: dog, oral, 30 mg/kg
# Experimental: Measurements of ECG parameters (QT interval, QTcb interval, QTcf interval) and heart rate were carried out and recorded over a period of 2 hour prior to drug administration (baseline), and continuously up to 24 hour post-administration. Each animal received both vehicle (placebo) and three different doses of the compound of Formula I.a on different days in a Latin square design, with a washout period of a minimum of 96 hr. […]
recorded-metric: AUC(0-inf)

[
  {
    "compound": "Cc1ccc(C(=O)NNC(=O)c2c(C)cccc2Cl)cc1C#Cc1cnc2ccccc2c1 [Compound I.a]",
    "meas-value": "25900 to 46700 ng·h/mL"
  }
]

###

# method-notes: Plasma pharmacokinetics in beagle dogs
# Assay type: in vivo
# assay-conditions: dog, oral, 5 mg/kg
recorded-metric: Cmax

[
  {
    "smi": "Cc1ccc(C(=O)NNC(=O)c2c(C)cccc2Cl)cc1C#Cc1cnc2ccccc2c1",
    "recorded-metric": "Cmax",
    "meas-value": "1220 to 2030 ng/mL"
  }
]

###

# assayed-target: hERG K+ channel (Homo sapiens)
# Construct: expressed in transfected cells
# method-notes: hERG K+ channel patch clamp in HEK293 cells
# Type: cell-based
# assay-conditions: human, HEK293 cells stably expressing hERG; 0.3 μM, 33 to 35° C., n=3; read-out: Mean percent inhibition of hERG current

[
  {
    "smi": "Cc1ccc(C(=O)NNC(=O)c2c(C)cccc2Cl)cc1C#Cc1ccc(NC(=O)C2CC2)nc1",
    "assayed-target": "hERG K+ channel (Homo sapiens)",
    "inhibition at 0.3 µM": "5.6%"
  }
]

###

# method-notes: Plasma pharmacokinetics in beagle dogs
# Assay type: in vivo
# assay-conditions: dog, oral, 15 mg/kg

[
  {
    "smi": "Cc1ccc(C(=O)NNC(=O)c2c(C)cccc2Cl)cc1C#Cc1cnc2ccccc2c1",
    "AUC(0-inf)": "6780 to 12800 ng·h/mL"
  }
]

###

# assayed-target: hERG K+ channel (Homo sapiens, UniProt Q12809)
# Construct: expressed in transfected cells
# Sequence (Q12809 whole entry): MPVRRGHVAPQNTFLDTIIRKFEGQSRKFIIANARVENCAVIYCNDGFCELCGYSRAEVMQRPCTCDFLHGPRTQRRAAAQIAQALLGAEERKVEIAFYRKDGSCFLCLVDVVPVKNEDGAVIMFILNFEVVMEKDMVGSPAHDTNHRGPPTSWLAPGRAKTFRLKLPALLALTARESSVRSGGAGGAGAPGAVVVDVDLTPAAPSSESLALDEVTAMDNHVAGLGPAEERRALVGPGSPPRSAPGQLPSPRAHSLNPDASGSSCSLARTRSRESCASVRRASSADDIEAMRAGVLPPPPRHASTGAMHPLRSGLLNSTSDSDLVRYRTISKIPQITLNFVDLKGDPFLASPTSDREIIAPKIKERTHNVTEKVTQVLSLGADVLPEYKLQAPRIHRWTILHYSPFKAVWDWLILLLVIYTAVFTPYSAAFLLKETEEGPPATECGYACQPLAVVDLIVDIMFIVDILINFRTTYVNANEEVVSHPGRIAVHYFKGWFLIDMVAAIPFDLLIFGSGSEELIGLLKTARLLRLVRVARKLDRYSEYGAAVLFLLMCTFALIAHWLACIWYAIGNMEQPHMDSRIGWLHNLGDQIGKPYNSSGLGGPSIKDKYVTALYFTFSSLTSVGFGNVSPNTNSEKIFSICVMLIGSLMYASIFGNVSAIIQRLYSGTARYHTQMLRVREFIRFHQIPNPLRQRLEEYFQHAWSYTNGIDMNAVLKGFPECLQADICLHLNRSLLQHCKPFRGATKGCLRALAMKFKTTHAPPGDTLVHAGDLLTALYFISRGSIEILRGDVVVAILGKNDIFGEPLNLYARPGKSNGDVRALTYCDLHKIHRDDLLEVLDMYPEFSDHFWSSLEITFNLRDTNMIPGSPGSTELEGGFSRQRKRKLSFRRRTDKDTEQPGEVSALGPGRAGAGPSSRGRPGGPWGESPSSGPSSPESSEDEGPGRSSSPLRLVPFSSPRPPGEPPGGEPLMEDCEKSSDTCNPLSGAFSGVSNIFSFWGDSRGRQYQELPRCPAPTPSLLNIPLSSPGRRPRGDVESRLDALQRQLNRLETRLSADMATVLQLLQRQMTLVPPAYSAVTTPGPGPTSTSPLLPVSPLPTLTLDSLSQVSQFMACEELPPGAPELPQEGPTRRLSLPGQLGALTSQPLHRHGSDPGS
# method-notes: hERG K+ channel patch clamp in HEK293 cells
# Assay type: cell-based
# assay-conditions: human, HEK293 cells stably expressing hERG; 3 μM, 33 to 35° C., n=3; read-out: Mean percent inhibition of hERG current

[
  {
    "smi": "Cc1ccc(C(=O)NNC(=O)c2c(C)cccc2Cl)cc1C#Cc1ccc(NC(=O)C2CC2)nc1",
    "inhibition at 3 µM": "25%"
  }
]

###

# method-notes: Plasma pharmacokinetics in beagle dogs
# Format: in vivo
# assay-conditions: dog, oral, 5 mg/kg

[
  {
    "compound": "Cc1ccc(C(=O)NNC(=O)c2c(C)cccc2Cl)cc1C#Cc1cnc2ccccc2c1 [Compound I.a]",
    "AUC(0-inf)": "1920 to 4820 ng·h/mL"
  }
]

###

# assayed-target: hERG K+ channel (Homo sapiens, UniProt Q12809)
# Construct: expressed in transfected cells
# method-notes: hERG K+ channel patch clamp in HEK293 cells
# Assay type: cell-based
# assay-conditions: human, HEK293 cells stably expressing hERG; 10 μM, 33 to 35° C., n=3; read-out: Mean percent inhibition of hERG current

[
  {
    "smi": "Cc1ccc(C(=O)NNC(=O)c2c(C)cccc2Cl)cc1C#Cc1cnc2ccccc2c1",
    "inhibition at 10 µM / %": 9.7
  }
]

###

# assayed-target: hERG K+ channel (Homo sapiens)
# Construct: expressed in transfected cells
# method-notes: hERG K+ channel patch clamp in HEK293 cells
# Type: cell-based
# assay-conditions: human, HEK293 cells stably expressing hERG; 1 μM, 33 to 35° C., n=3; read-out: Mean percent inhibition of hERG current
recorded-metric: inhibition at 1 µM (%)

[
  {
    "smi": "Cc1ccc(C(=O)NNC(=O)c2c(C)cccc2Cl)cc1C#Cc1cnc2ccccc2c1",
    "unit-label": "%",
    "meas-value": 2.1
  },
  {
    "smi": "Cc1ccc(C(=O)NNC(=O)c2c(C)cccc2Cl)cc1C#Cc1ccc(NC(=O)C2CC2)nc1",
    "unit-label": "%",
    "meas-value": 12.9
  }
]
